Target: Casein kinase I isoform gamma-2 (Homo sapiens)
# ΔTm listing for each entry below

compound	unit label	ΔTm
CC(C)c1cc(/C=C(\C#N)C(=O)NCCCc2ccccc2)cc(C(C)C)c1O	°C	0.5
COc1cc2c(cc1OC)-c1n[nH]c(Nc3cccc(F)c3)c1C2	°C	0.3
COc1ccc2c(c[n+](C)c3c4cc5c(cc4ccc23)OCO5)c1OC [CHELERYTHRINE CHLORIDE]	°C	-0.2
CN(C)c1ccc(CC2C(=O)Nc3ccccc32)cc1 (stereo not given)	°C	0.8
Nc1n[nH]c2nnc(-c3c(-c4ccccc4)nn4ccccc34)cc12	°C	0
O=c1c(-c2ccc(O)cc2)coc2cc(O)cc(O)c12	°C	0.3
NS(=O)(=O)c1ccc(Nc2nc(OCC3CCCCC3)c3nc[nH]c3n2)cc1	°C	2.5
O=C1c2ccccc2-[n+]2ccc3c([nH]c4ccccc43)c21 [FASCAPLYSIN CHLORIDE]	°C	-0.3
C[C@@H](N)[C@H]1CC[C@H](C(=O)Nc2ccncc2)CC1	°C	0.6
O=Nc1c(-c2c(O)[nH]c3ccccc23)[nH]c2ccccc12	°C	1.3

====

Target: Calcium/calmodulin-dependent protein kinase type 1G (Homo sapiens) (UniProt Q96NX5)
Sequence (Q96NX5 whole entry): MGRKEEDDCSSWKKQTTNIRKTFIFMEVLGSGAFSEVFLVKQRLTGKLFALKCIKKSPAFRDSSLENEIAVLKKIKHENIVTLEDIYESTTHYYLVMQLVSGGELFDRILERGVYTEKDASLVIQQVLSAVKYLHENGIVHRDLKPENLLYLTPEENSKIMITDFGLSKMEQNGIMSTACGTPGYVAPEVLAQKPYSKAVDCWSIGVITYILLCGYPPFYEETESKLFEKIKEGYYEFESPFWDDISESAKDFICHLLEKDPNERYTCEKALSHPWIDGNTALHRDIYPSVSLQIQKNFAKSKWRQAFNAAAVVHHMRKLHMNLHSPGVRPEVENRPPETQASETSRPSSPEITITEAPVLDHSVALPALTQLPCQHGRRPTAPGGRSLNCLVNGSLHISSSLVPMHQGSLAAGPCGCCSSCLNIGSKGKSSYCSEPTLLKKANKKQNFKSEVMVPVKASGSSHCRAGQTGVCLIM
# ΔTm >= 1 °C gives fulfilled, anything below gives not fulfilled

molecular string	label value
Cn1cc(C2=C(c3cn(CCCSC(=N)N)c4ccccc34)C(=O)NC2=O)c2ccccc21	fulfilled
O=Nc1c(-c2c(O)[nH]c3ccccc23)[nH]c2ccccc12	fulfilled
O=c1c(O)c(-c2ccc(O)c(O)c2)oc2cc(O)cc(O)c12	fulfilled
N#C/C(=C\c1ccc(O)c(O)c1)C(=O)NCc1ccccc1	not fulfilled
CC(C)n1cnc2c(NCc3ccccc3)nc(NCCCO)nc21	not fulfilled
Ic1cccc(CSc2nnc(-c3ccncc3)o2)c1	not fulfilled

====

Target: Dual specificity mitogen-activated protein kinase kinase 2 (Homo sapiens, UniProt P36507)
Sequence (P36507 whole entry): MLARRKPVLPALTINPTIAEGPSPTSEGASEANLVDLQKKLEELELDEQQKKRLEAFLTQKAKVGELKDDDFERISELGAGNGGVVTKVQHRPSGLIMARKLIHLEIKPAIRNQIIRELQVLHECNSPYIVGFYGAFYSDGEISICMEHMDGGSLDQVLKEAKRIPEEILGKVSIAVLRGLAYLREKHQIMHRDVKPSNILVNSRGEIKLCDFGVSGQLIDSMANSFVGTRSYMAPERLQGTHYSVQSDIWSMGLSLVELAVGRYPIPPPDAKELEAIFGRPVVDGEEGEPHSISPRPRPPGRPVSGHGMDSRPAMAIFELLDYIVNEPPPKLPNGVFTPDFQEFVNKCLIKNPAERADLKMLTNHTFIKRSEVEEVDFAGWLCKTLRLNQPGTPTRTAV
Rule: ΔTm below 0.7 °C gives Met. Equal to or above 0.7 °C gives Not met.

compound	system under test	label value
Clc1ccc(Nc2nnc(Cc3ccncc3)c3ccccc23)cc1	Dual specificity mitogen-activated protein kinase kinase 2 (Homo sapiens, UniProt P36507)	Met
c1ccc(-c2n[nH]c3c2oc2ccccc23)cc1	Dual specificity mitogen-activated protein kinase kinase 2 (Homo sapiens, UniProt P36507)	Met
O=c1c(O)c(-c2ccc(O)c(O)c2)oc2cc(O)cc(O)c12	Dual specificity mitogen-activated protein kinase kinase 2 (Homo sapiens, UniProt P36507)	Not met
Ic1cccc(CSc2nnc(-c3ccncc3)o2)c1	Dual specificity mitogen-activated protein kinase kinase 2 (Homo sapiens, UniProt P36507)	Met
Cc1[nH]c(/C=C2\C(=O)Nc3ccc(S(=O)(=O)N(C)c4cccc(Cl)c4)cc32)c(C)c1C(=O)N1CCN(C)CC1	Dual specificity mitogen-activated protein kinase kinase 2 (Homo sapiens, UniProt P36507)	Not met
CC(C)c1cc(/C=C(\C#N)C(=O)NCCCc2ccccc2)cc(C(C)C)c1O	Dual specificity mitogen-activated protein kinase kinase 2 (Homo sapiens, UniProt P36507)	Met
COc1cc(/C=C/C(=O)CC(=O)/C=C/c2ccc(O)c(OC)c2)ccc1O	Dual specificity mitogen-activated protein kinase kinase 2 (Homo sapiens, UniProt P36507)	Not met
CC(C)n1cnc2c(NCc3ccccc3)nc(NCCCO)nc21	Dual specificity mitogen-activated protein kinase kinase 2 (Homo sapiens, UniProt P36507)	Met
CN1CCC(Nc2ncc3ncnc(Nc4ccc(F)c(Cl)c4)c3n2)CC1	Dual specificity mitogen-activated protein kinase kinase 2 (Homo sapiens, UniProt P36507)	Not met
CN(C)S(=O)(=O)c1ccc2c(c1)/C(=C/c1cc3c([nH]1)CCCC3)C(=O)N2	Dual specificity mitogen-activated protein kinase kinase 2 (Homo sapiens, UniProt P36507)	Not met
CCCNC(=O)Nc1ccc(Oc2ncnc3cc(OC)c(OC)cc23)cc1Cl	Dual specificity mitogen-activated protein kinase kinase 2 (Homo sapiens, UniProt P36507)	Met
COc1ccc2c(c[n+](C)c3c4cc5c(cc4ccc23)OCO5)c1OC [CHELERYTHRINE CHLORIDE]	Dual specificity mitogen-activated protein kinase kinase 2 (Homo sapiens, UniProt P36507)	Met
Nc1nc(Nc2ccc(S(N)(=O)=O)cc2)nn1C(=S)Nc1c(F)cccc1F	Dual specificity mitogen-activated protein kinase kinase 2 (Homo sapiens, UniProt P36507)	Not met
COc1cc2ncnc(Nc3ccc(F)c(Cl)c3)c2cc1OCCCN1CCOCC1	Dual specificity mitogen-activated protein kinase kinase 2 (Homo sapiens, UniProt P36507)	Met
CC(C)(C)c1nc2c3ccc(F)cc3c3c(=O)[nH]ccc3c2[nH]1	Dual specificity mitogen-activated protein kinase kinase 2 (Homo sapiens, UniProt P36507)	Not met
CN(C)CC1CCn2c(c(C3=C(c4c[nH]c5ccccc45)C(=O)NC3=O)c3ccccc32)C1 (stereo unspecified)	Dual specificity mitogen-activated protein kinase kinase 2 (Homo sapiens, UniProt P36507)	Met
CC(C)[C@H](CO)Nc1nc(Nc2cc(N)cc(Cl)c2)c2ncn(C(C)C)c2n1	Dual specificity mitogen-activated protein kinase kinase 2 (Homo sapiens, UniProt P36507)	Met
Nc1nccc(-c2c(-c3ccc(F)cc3)ncn2C2CCNCC2)n1	Dual specificity mitogen-activated protein kinase kinase 2 (Homo sapiens, UniProt P36507)	Met
O=C1c2ccccc2-[n+]2ccc3c([nH]c4ccccc43)c21 [FASCAPLYSIN CHLORIDE]	Dual specificity mitogen-activated protein kinase kinase 2 (Homo sapiens, UniProt P36507)	Met
O=C1Nc2ccc(S(=O)(=O)O)cc2/C1=C1/Nc2ccccc2/C1=N\O	Dual specificity mitogen-activated protein kinase kinase 2 (Homo sapiens, UniProt P36507)	Not met
NC1=N/C(=C2/CCNC(=O)c3[nH]ccc32)C(=O)N1	Dual specificity mitogen-activated protein kinase kinase 2 (Homo sapiens, UniProt P36507)	Met
O=C1NC(=O)c2c1c1c3ccccc3n3c1c1c2c2ccccc2n1C1CCC3O1	Dual specificity mitogen-activated protein kinase kinase 2 (Homo sapiens, UniProt P36507)	Met
Oc1ccc(-c2nc(-c3ccc(F)cc3)c(-c3ccncc3)[nH]2)cc1	Dual specificity mitogen-activated protein kinase kinase 2 (Homo sapiens, UniProt P36507)	Not met
C#Cc1cccc(Nc2ncnc3cc(OCCOC)c(OCCOC)cc23)c1	Dual specificity mitogen-activated protein kinase kinase 2 (Homo sapiens, UniProt P36507)	Met
Cc1c2ccncc2c(C)c2c1[nH]c1ccccc12	Dual specificity mitogen-activated protein kinase kinase 2 (Homo sapiens, UniProt P36507)	Not met
O=S(=O)(NCCNC/C=C/c1ccc(Br)cc1)c1cccc2cnccc12	Dual specificity mitogen-activated protein kinase kinase 2 (Homo sapiens, UniProt P36507)	Met
O=C(O)/C=C/c1cc(CO)ccc1CO	Dual specificity mitogen-activated protein kinase kinase 2 (Homo sapiens, UniProt P36507)	Met
COc1ccc(Cl)cc1NC(=O)Nc1cc(C)nc2ccccc12	Dual specificity mitogen-activated protein kinase kinase 2 (Homo sapiens, UniProt P36507)	Met
COc1nccc(-c2c(-c3ccc(F)cc3)ncn2[C@H]2CC[C@H](O)CC2)n1	Dual specificity mitogen-activated protein kinase kinase 2 (Homo sapiens, UniProt P36507)	Met
Nc1ncnc2c1c(I)cn2[C@@H]1O[C@H](CO)[C@@H](O)[C@H]1O	Dual specificity mitogen-activated protein kinase kinase 2 (Homo sapiens, UniProt P36507)	Not met
Brc1c(Br)c(Br)c2[nH]nnc2c1Br	Dual specificity mitogen-activated protein kinase kinase 2 (Homo sapiens, UniProt P36507)	Not met
COc1ccc(CNc2nc(N(CCO)CCO)nc3c2ncn3C(C)C)cc1	Dual specificity mitogen-activated protein kinase kinase 2 (Homo sapiens, UniProt P36507)	Met
C[C@@H](N)[C@H]1CC[C@H](C(=O)Nc2ccncc2)CC1	Dual specificity mitogen-activated protein kinase kinase 2 (Homo sapiens, UniProt P36507)	Met
COc1cc2ncnc(Nc3ccc(NC(=O)c4ccccc4)cc3)c2cc1OC	Dual specificity mitogen-activated protein kinase kinase 2 (Homo sapiens, UniProt P36507)	Met
O=Nc1c(-c2c(O)[nH]c3ccccc23)[nH]c2ccccc12	Dual specificity mitogen-activated protein kinase kinase 2 (Homo sapiens, UniProt P36507)	Not met
CC(C)n1cnc2c(NCc3ccccc3O)nc(NCCCO)nc21	Dual specificity mitogen-activated protein kinase kinase 2 (Homo sapiens, UniProt P36507)	Met
COc1cc(OC)c(/C=C2\C(=O)Nc3ccccc32)c(OC)c1	Dual specificity mitogen-activated protein kinase kinase 2 (Homo sapiens, UniProt P36507)	Met
N#C/C(=C\c1ccc(O)c(O)c1)C(=O)Nc1ccccc1	Dual specificity mitogen-activated protein kinase kinase 2 (Homo sapiens, UniProt P36507)	Met
O=c1c(-c2ccc(O)cc2)coc2cc(O)cc(O)c12	Dual specificity mitogen-activated protein kinase kinase 2 (Homo sapiens, UniProt P36507)	Met
COc1ccc2c(c1)/C(=C/c1cnc[nH]1)C(=O)N2	Dual specificity mitogen-activated protein kinase kinase 2 (Homo sapiens, UniProt P36507)	Not met

Reference source: ChEMBL document CHEMBL1145498
